# subject of test: BTK recombinant protein (Homo sapiens (Human))
# assay method text: Determination of biochemical BTK (Z'-LYTE kinase assay)
Classify: true (1) when IC50 is strictly less than 10 nM; false (0) when IC50 is not.

Solved cases (5 shown):
- molecule: "COCc1c(-c2cc(N(C)c3ccc(N4CCN(C5COC5)C[C@@H]4C)cn3)c(=O)n(C)c2)ccnc1-n1ccn2c3c(cc2c1=O)CC(C)(C)C3"
  group label: "false (0)"
- molecule: "C[C@@H]1CN(c2ccc(Nc3cc(-c4ccnc(-n5ccn6c7c(cc6c5=O)CC(C)(C)C7)c4CO)nn(C)c3=O)nc2)[C@@H](C)CN1C1COC1 [Compound 201]"
  group label: "true (1)"
- molecule: "C[C@@H]1CN(C2COC2)CCN1c1ccc(Nc2cc(-c3ccnc(-n4ccn5c6c(cc5c4=O)CC(C)(C)C6)c3CO)cn(C)c2=O)nc1"
  group label: "true (1)"
- molecule: "Cn1cc(-c2ccnc(-n3ncn4c5c(cc4c3=O)CC(C)(C)C5)c2CO)cc(Nc2cc3n(n2)CCN(C2CC2)C3)c1=O"
  group label: "false (0)"
- molecule: "Cc1ccc(Nc2cc(-c3ccnc(-n4ncn5c6c(cc5c4=O)CC(C)(C)C6)c3CO)cn(C)c2=O)nn1"
  group label: "false (0)"

Threshold test, IC50 < 10 nM: "CCN(CCOC)c1ccc(Nc2cc(-c3ccnc(-n4ccn5c6c(cc5c4=O)CC(C)(C)C6)c3CO)cn(C)c2=O)nc1"
false (0)

Threshold test, IC50 < 10 nM: COCCN1CCn2nc(Nc3cc(-c4ccnc(-n5ccn6c7c(cc6c5=O)CC(C)(C)C7)c4CO)cn(C)c3=O)cc2C1C (stereo not drawn)
true (1)

Threshold test, IC50 < 10 nM: "C[C@H]1CN(C2COC2)CCN1c1ccc(Nc2cc(-c3ccnc(-n4ccn5c6c(cc5c4=O)CC(C)(C)C6)c3CO)cn3c(F)cnc23)nc1"
false (0)

Threshold test, IC50 < 10 nM: "Cn1cc(-c2ccnc(-n3ncn4c5c(cc4c3=O)CC(C)(C)C5)c2CO)cc(Nc2cc3n(n2)CCN(C2COC2)C3)c1=O"
true (1)

Threshold test, IC50 < 10 nM: "C[C@H]1CN(CC#N)CCN1c1ccc(Nc2cc(-c3ccnc(-n4ccn5c6c(cc5c4=O)CC(C)(C)C6)c3CO)cn(C)c2=O)nc1"
false (0)

Threshold test, IC50 < 10 nM: "C[C@H]1CN(C2COC2)CCN1c1ccc(Nc2cc(-c3ccnc(-n4ncn5c6c(c(F)c5c4=O)CCCC6)c3CO)cn(C)c2=O)nc1"
false (0)

###

# subject of test: phosphorylated BTK in Ramos cells (Homo sapiens (Human))
# assay method text: Determination of phosphorylated BTK in Ramos cells (BTK phospho-Y223 HTRF)
# condition details: anti-human IgM + hydrogen peroxide stimulation
metric: IC50 (nM)
One number for each entry, in nM.

# annotated cases, reported IC50 shown
- molecule: "Cn1nc(-c2ccnc(-n3ccn4c5c(cc4c3=O)CC(C)(C)C5)c2CO)cc(Nc2cn(CC(F)(F)F)nn2)c1=O [Compound 33]"
  result number: 26
- molecule: "Cn1cc(-c2ccnc(-n3ccn4c5c(cc4c3=O)CC(C)(C)C5)c2CO)cc(Nc2ccc(C(=O)N3CCOCC3)cn2)c1=O [Compound 47]"
  result number: 3

Provide IC50 for all items below, preserving their order.
1. C[C@@H]1[C@H](C)N(c2ccc(Nc3cc(-c4ccnc(-n5ccn6c7c(cc6c5=O)CC(C)(C)C7)c4CO)cn(C)c3=O)nc2)CCN1C1COC1 [Compound 234]
2. Cn1cc(-c2ccnc(-n3ccn4c5c(cc4c3=O)CC(C)(C)C5)c2CO)cc(Nc2cccnn2)c1=O [Compound 84]
3. C[C@H]1COCCN1c1ccc(Nc2cc(-c3ccnc(-n4ccn5c6c(cc5c4=O)CCC6)c3CO)cn(C)c2=O)nc1 [Compound 189]
4. C[C@H]1CN(C2COC2)CCN1c1ccc(Nc2cc(-c3ccnc(-n4ccn5c(cc6ccccc65)c4=O)c3CO)cn(C)c2=O)nc1 [Compound 74]
5. CN1CCn2nc(Nc3cc(-c4ccnc(-n5ccn6c7c(cc6c5=O)CC(C)(C)C7)c4CO)cn(C)c3=O)cc2C1 [Compound 69]
6. COCCN1C[C@H](C)N(c2ccc(Nc3cc(-c4ccnc(-n5ncn6c7c(cc6c5=O)CC(C)(C)C7)c4CO)cn(C)c3=O)nc2)C[C@H]1C [Compound 207]

[10, 11, 51, 11, 2, 8]

###

# subject of test: phosphorylated BTK in Ramos cells (Homo sapiens (Human), UniProt Q06187)
# Sequence (Q06187 whole entry): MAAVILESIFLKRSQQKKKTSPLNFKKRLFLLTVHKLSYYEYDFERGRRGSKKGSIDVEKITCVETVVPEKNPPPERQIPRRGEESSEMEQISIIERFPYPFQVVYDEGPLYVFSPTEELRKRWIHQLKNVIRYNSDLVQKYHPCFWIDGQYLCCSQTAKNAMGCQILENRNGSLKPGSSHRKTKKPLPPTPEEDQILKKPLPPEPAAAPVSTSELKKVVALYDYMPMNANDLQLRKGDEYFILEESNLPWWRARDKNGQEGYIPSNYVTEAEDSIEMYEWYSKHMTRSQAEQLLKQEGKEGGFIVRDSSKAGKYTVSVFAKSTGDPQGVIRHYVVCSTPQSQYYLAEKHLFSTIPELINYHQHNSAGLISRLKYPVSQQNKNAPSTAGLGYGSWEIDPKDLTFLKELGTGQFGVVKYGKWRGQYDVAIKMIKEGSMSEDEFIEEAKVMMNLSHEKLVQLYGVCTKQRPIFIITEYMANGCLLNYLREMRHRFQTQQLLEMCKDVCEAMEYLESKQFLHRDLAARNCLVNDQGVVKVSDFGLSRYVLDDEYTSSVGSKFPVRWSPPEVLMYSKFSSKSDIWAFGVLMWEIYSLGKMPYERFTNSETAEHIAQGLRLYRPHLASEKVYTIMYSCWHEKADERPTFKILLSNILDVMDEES
# assay method text: Determination of phosphorylated BTK in Ramos cells (BTK phospho-Y223 HTRF)
# condition details: anti-human IgM + hydrogen peroxide stimulation
So I've got a bunch of compounds here, and I need their pIC50 values.
Numbers only, as −log10 of the molar value.

- compound: "Cn1cc(-c2ccnc(-n3ccn4c5c(cc4c3=O)CC(C)(C)C5)c2CO)cc(Nc2ccc(N3CCN(C4COC4)CC3=O)cn2)c1=O"
  pIC50: 8.00
- compound: "Cn1cc(-c2ccnc(-n3ccn4c5c(cc4c3=O)CC(C)(C)C5)c2CO)cc(Nc2cc3n(n2)CCN(C#N)C3)c1=O"
  pIC50: 8.30
- compound: "CCn1cc(Nc2cc(-c3ccnc(-n4ccn5c6c(c(F)c5c4=O)CCCC6)c3CO)cn(C)c2=O)cn1"
  pIC50: 7.08
- compound: "CC(O)CN(CCNc1ccc(Nc2cc(-c3ccnc(-n4ccn5c6c(cc5c4=O)CC(C)(C)C6)c3CO)cn(C)c2=O)nc1)C1COC1 (racemic)"
  pIC50: 7.15
- compound: "C[C@H]1CN(C2COC2)CCN1c1ccc(Nc2cc(-c3ccnc(-n4cnn5c6c(c(F)c5c4=O)CCCC6)c3CO)cn(C)c2=O)nc1"
  pIC50: 7.40

Provide pIC50 for all items below, preserving their order.
1. CC(C)n1cc(Nc2nc(-c3ccnc(-n4ccn5c6c(cc5c4=O)CC(C)(C)C6)c3CO)cn(C)c2=O)nn1
2. C[C@H]1CN(C2COC2)CCN1c1ccc(Nc2cc(-c3ccnc(-n4ccn5c(c(F)c6cc(F)ccc65)c4=O)c3CO)cn(C)c2=O)nc1
3. C[C@H]1CN(C2COC2)CCN1c1ccc(Nc2cc(-c3ccnc(-n4ccn5c(cc6cccnc65)c4=O)c3CO)cn(C)c2=O)nc1
4. CCN1CCn2nc(Nc3cc(-c4ccnc(-n5ncn6c7c(cc6c5=O)CC(C)(C)C7)c4CO)cn(C)c3=O)cc2C1
5. Cn1cc(-c2ccnc(-n3ccn4c5c(cc4c3=O)CC(C)(C)C5)c2CO)cc(Nc2ccc(N3CCN(C4COC4)CC34CC4)cn2)c1=O

1: 6.32; 2: 8.52; 3: 7.22; 4: 7.51; 5: 8.40

Provide pIC50 for all items below, preserving their order.
1. C[C@H]1CNCCN1c1ccc(Nc2cc(-c3ccnc(-n4ccn5c6c(cc5c4=O)CC(C)(C)C6)c3CO)cn(C)c2=O)nc1
2. C[C@H]1CN(C2COC2)CCN1c1ccc(Nc2cc(-c3ccnc(-n4ccn5c(cc6ccccc65)c4=O)c3CO)nn(C)c2=O)nc1

8.30
7.22

###

# subject of test: BTK recombinant protein (Homo sapiens (Human), UniProt Q06187)
# Sequence (Q06187 whole entry): as above
# assay method text: Determination of biochemical BTK (Z'-LYTE kinase assay)
metric: pIC50
Numbers only, as −log10 of the molar value.

# annotated cases, reported pIC50 shown
- molecule: "Cn1cc(-c2ccnc(-n3ccn4c5c(cc4c3=O)CC(C)(C)C5)c2CO)cc(NC(=O)C2CC2)c1=O"
  result number: 7.96
- molecule: "COCCn1cc(Nc2cc(-c3ccnc(-n4ccn5c6c(cc5c4=O)CC(C)(C)C6)c3CO)cn(C)c2=O)cn1"
  result number: 7.15
- molecule: "Cc1ccc2c(c1)cc1c(=O)n(-c3nccc(-c4cc(Nc5ccc(N6CCN(C7COC7)C[C@@H]6C)cn5)c(=O)n(C)c4)c3CO)ccn12"
  result number: 7.39

Provide pIC50 for all items below, preserving their order.
1. Cc1ccc(Nc2cc(-c3ccnc(-n4ccn5c6c(cc5c4=O)CCC6)c3CO)cn(C)c2=O)nn1
2. Cn1nc(-c2ccnc(-n3ccn4c5c(cc4c3=O)CC(C)(C)C5)c2CO)cc(Nc2cn(CCF)nn2)c1=O
3. Cn1cc(Nc2cc(-c3ccnc(-n4ccn5c6c(cc5c4=O)CC(C)(C)C6)c3CO)cn(C)c2=O)cn1
4. Cn1cc(-c2ccnc(-n3ccn4c5c(cc4c3=O)CC(C)(C)C5)c2CO)cc(Nc2ccc(N3CCC4(CC3)COC4)cn2)c1=O
5. CC1Cc2cc3c(=O)n(-c4nccc(-c5cc(Nc6cc7n(n6)CCOC7)c(=O)n(C)c5)c4CO)ccn3c2C1 (stereo not drawn)
6. Cn1cc(-c2ccnc(-n3ccn4c5c(cc4c3=O)CC(C)(C)C5)c2CO)cc(Nc2ccc(C(=O)N3CCOCC3)cn2)c1=O
7. Cn1cc(-c2ccnc(-n3ccn4c5c(cc4c3=O)CCC5)c2CO)cc(Nc2cc3n(n2)CCOC3)c1=O

[5.81, 7.77, 7.80, 7.92, 7.92, 8.52, 6.91]
